IC50 listing for selected compounds.
# assayed system: EBI2 (Homo sapiens)
# Sequence (P32249 whole entry): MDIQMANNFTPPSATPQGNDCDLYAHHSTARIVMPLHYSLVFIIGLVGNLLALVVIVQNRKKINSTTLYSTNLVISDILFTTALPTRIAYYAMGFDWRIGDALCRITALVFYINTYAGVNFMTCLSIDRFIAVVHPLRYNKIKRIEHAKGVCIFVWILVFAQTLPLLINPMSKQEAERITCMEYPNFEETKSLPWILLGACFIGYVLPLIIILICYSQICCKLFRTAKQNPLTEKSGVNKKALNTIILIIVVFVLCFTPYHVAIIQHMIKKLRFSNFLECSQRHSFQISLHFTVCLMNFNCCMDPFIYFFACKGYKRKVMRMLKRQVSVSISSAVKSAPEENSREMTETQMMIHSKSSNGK
# procedure summary: Cell-based luminescent assay (EBI2 modulation)
# conditions used: cell-based luminescence; 7a,25-OHC final assay concentration 80 nM; 60 minutes incubation; read-out: IC50
property: IC50

O=C(Nc1ccc(F)cc1)c1ccc(CN2CCN(C(=O)c3cc4cc(Cl)ccc4[nH]3)CC2)cc1 [Compound C181] | 500 to 5000 nM
CCOc1ccc(/C=C/C(=O)N2CCN(S(=O)(=O)c3ccc(C(C)=O)cc3)CC2)cc1 [Compound C307] | < 100 nM
O=C(C=Cc1ccc2c(c1)OCO2)N1CCN(Cc2ccc(Cl)cc2)CC1 [Compound C297] | 100 to 500 nM
COc1cc2cc(C(=O)N3CCN(C(c4ccccc4)c4ccccc4)CC3)[nH]c2cc1OC [Compound C280] | 100 to 500 nM
O=C(c1cc2cc(C(F)(F)F)ccc2[nH]1)N1CCN(C(c2ccccc2)c2ccccc2)CC1 [Compound C79] | < 100 nM
Cc1ccc(C(=O)N2CCN(C(=O)/C=C/c3ccc(Br)cc3)CC2)cc1 [Compound C4] | < 100 nM
O=C(c1cc2cc(-c3ccccc3)ccc2[nH]1)N1CCN(C(c2ccccc2)c2ccccc2)CC1 [Compound C217] | < 100 nM
O=C(c1cc2ccc(F)cc2[nH]1)N1CCN(C(c2ccccc2)c2ccccc2)CC1 [Compound C215] | < 100 nM
O=C(c1cc2cc(Cl)ccc2[nH]1)N1CCC(Oc2ccc(Cl)cc2)CC1 [Compound C317] | < 100 nM
CC(C)c1ccc2[nH]c(C(=O)N3CCN(C(c4ccccc4)c4ccccc4)CC3)cc2c1 [Compound C338] | < 100 nM
O=C(/C=C/c1ccc(F)cc1)N1CCN(S(=O)(=O)c2ccccc2Br)CC1 [Compound C100] | < 100 nM
O=C(C#Cc1ccc(C(F)(F)F)cc1)N1CCN(C(=O)c2ccc(C(F)(F)F)cc2)CC1 [Compound C84] | < 100 nM
O=C(/C=C/c1ccc(Br)cc1)N1CCN(Cc2ccc(Cl)c(Cl)c2)CC1 [Compound C39] | < 100 nM
O=C(c1ccc(Cl)cc1)N1CCN(C(=O)c2cc3ccc(Cl)cc3[nH]2)CC1 [Compound C255] | < 100 nM
CCCc1ccc(S(=O)(=O)N2CCN(C(=O)/C=C/c3ccc(F)cc3)CC2)cc1 [Compound C259] | < 100 nM
O=C(/C=C/c1ccc(Cl)c(Cl)c1)N1CCN(C(=O)c2ccc(F)cc2)CC1 [Compound C20] | < 100 nM
O=C(/C=C/c1ccccc1C(F)(F)F)N1CCN(S(=O)(=O)c2ccc(Br)cc2)CC1 [Compound C277] | 100 to 500 nM
CC(C)(C)c1ccc(S(=O)(=O)N2CCN(C(=O)/C=C/c3ccc(Cl)c(Cl)c3)CC2)cc1 [Compound C334] | < 100 nM
O=C(Nc1ccc(Cl)cc1)N1CCN(C(=O)c2cc3cc(Cl)ccc3[nH]2)CC1 [Compound C429] | 100 to 500 nM
O=C(/C=C/c1ccc([N+](=O)[O-])cc1)N1CCN(C(c2ccccc2)c2ccccc2)CC1 [Compound C63] | < 100 nM
O=C(/C=C/c1ccc(Br)cc1)N1CCN(S(=O)(=O)c2ccc(Br)cc2)CC1 [Compound C37] | < 100 nM
